Molecular target: UniProtKB P21453
Experiment: Agonist activity at human S1P1 receptor expressed in U20S cells coexpressing eGFP assessed as receptor internalization after 1 hr by microscopy analysis relative to S1P1
Type: functional, cell-based
Details: U2OS
experimental_readout: Efficacy (%)
# number only, unit % dropped from output

INSERT INTO assay_data (molecule, experimental_readout, endpoint_value) VALUES
  ('CC(c1ccc2nc(-c3ccc(CN4CC(C(=O)O)C4)cc3F)sc2c1)c1ccccn1 (racemic)', 'Efficacy', 79),
  ('CCC(c1ccc2nc(-c3ccc(CN4CC(C(=O)O)C4)cc3F)sc2c1)c1ccccn1 (single isomer, unassigned; (+))', 'Efficacy', 93),
  ('O=C(O)C1CN(Cc2ccc(-c3nc4cc(Cc5ccccn5)ccc4s3)c(F)c2)C1', 'Efficacy', 94),
  ('O=C(O)C1CN(Cc2ccc(-c3nc4ccc(C5(c6ccccn6)CC5)cc4s3)c(F)c2)C1', 'Efficacy', 90),
  ('O=C(c1ccc2nc(-c3ccc(CN4CC(C(=O)O)C4)cc3F)sc2c1)c1ccccn1', 'Efficacy', 50),
  ('O=C(O)C1CN(Cc2ccc(-c3nc4ccc(C(=O)N5CCCCC5)cc4s3)c(F)c2)C1', 'Efficacy', 95),
  ('CCC(c1ccc2nc(-c3ccc(CN4CC(C(=O)O)C4)cc3F)sc2c1)c1ccccn1 (single isomer, unassigned)', 'Efficacy', 95);

With those in mind, consider the next molecule.
Task: So what does the record say about Efficacy for O=C(O)C1CN(Cc2ccc(-c3nc4ccc(C(=O)N5CCCCCC5)cc4s3)c(F)c2)C1 ?
Output: 108

###

Target: Sphingosine 1-phosphate receptor 1 (Homo sapiens)
Sequence (P21453 whole entry): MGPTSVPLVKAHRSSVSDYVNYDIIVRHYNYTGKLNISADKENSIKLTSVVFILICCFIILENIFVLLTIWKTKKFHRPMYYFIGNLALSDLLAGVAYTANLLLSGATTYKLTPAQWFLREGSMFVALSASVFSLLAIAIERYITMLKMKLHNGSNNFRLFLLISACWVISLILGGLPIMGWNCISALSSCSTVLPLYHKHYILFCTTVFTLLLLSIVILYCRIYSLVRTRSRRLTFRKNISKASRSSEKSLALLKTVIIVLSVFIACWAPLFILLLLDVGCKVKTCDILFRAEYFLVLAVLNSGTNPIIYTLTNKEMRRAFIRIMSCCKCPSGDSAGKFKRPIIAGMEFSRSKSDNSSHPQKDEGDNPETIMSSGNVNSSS
Assay: Agonist activity at human S1P1 receptor expressed in U20S cells coexpressing eGFP assessed as receptor internalization after 1 hr by microscopy analysis relative to S1P1
Assay type: functional, cell-based
Settings: U2OS
experimental_readout: Efficacy

INSERT INTO assay_data (compound, system_under_test, endpoint_value) VALUES
  ('CC1(C)SCCN1C(=O)c1ccc2nc(-c3ccc(CN4CC(C(=O)O)C4)cc3F)sc2c1', 'Sphingosine 1-phosphate receptor 1 (Homo sapiens)', '80%');

Task: Kindly state the measured Efficacy obtained for CCC1SCCN1C(=O)c1ccc2nc(-c3ccc(CN4CC(C(=O)O)C4)cc3F)sc2c1 (single isomer, unassigned; (+)) with Sphingosine 1-phosphate receptor 1 (Homo sapiens).
Output: 107%

Task: Kindly state the measured Efficacy obtained for CCC1SCCN1C(=O)c1ccc2nc(-c3ccc(CN4CC(C(=O)O)C4)cc3F)sc2c1 (stereo in doubt; (-)-11f) with Sphingosine 1-phosphate receptor 1 (Homo sapiens).
Output: 106%

Task: Kindly state the measured Efficacy obtained for O=C(O)C1CN(Cc2ccc(-c3nc4ccc(Cc5ccccn5)cc4s3)c(F)c2)C1 with Sphingosine 1-phosphate receptor 1 (Homo sapiens).
Output: 71%
